In this section we review reported pIC50 values for a set of compounds.
- Target under test: beta-catenin/TCF4 engagement (Homo sapiens)
- Construct: expressed in transfected cells; host or cells: HEK293
- Sequence (P35222 1-781): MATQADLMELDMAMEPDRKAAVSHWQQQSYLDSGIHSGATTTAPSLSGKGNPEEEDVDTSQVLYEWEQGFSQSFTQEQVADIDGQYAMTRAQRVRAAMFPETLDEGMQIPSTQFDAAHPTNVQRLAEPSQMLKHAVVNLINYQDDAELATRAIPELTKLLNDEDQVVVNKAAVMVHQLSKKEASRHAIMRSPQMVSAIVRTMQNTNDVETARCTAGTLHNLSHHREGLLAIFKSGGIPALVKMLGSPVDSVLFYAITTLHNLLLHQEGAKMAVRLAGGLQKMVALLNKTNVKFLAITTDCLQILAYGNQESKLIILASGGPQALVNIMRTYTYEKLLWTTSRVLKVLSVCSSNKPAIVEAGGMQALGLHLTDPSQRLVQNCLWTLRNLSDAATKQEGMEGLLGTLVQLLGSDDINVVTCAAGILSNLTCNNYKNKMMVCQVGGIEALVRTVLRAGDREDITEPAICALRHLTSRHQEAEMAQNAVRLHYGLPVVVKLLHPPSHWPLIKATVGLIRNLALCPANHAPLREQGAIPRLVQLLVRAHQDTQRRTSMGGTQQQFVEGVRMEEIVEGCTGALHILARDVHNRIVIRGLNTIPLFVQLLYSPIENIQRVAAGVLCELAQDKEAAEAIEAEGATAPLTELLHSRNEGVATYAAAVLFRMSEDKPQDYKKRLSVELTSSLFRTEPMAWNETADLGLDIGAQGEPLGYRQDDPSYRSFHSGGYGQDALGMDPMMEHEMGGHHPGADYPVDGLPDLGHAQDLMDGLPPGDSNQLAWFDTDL
- Assay procedure: Nano-BRET target engagement assay (B-cat-Halo & TCF4-Luc in HEK293 cells)
- Type: cell-based
- Measurement setup: absolute IC50; read-out: NanoBRET Abs IC50
Recall that pIC50 is obtained by taking minus log10 of the concentration measured in molar.

CC(=O)N1CCC[C@]12CC=CCCCC1(CCCC=CCCCOC(=O)N3CC[C@@](C(=O)N[C@@H](Cc4ccccc4Cl)C(=O)N[C@@H](Cc4csc5ccccc45)C(=O)N[C@@H](C)CO)(C3)NC(=O)[C@H](CC(N)=O)NC(=O)[C@H](Cc3ccccc3)NC(=O)[C@H](C)NC(=O)[C@H](C)NC(=O)[C@H](CC(=O)O)NC(=O)[C@H](CC(=O)O)NC1=O)NC(=O)[C@H](CC(C)(C)C)NC(=O)[C@H](CC(=O)O)NC2=O (some centres unmarked) ... 4.78
CC(=O)N1CCC[C@]12CC=CCCCC1(CCCC=CCCCOC(=O)N3CC[C@@](C(=O)N[C@@H](Cc4ccccc4Cl)C(=O)N[C@@H](Cc4csc5ccccc45)C(=O)N[C@@H](CCC(N)=O)C(N)=O)(C3)NC(=O)[C@H](CC(N)=O)NC(=O)[C@H](Cc3ccccc3)NC(=O)[C@H](C)NC(=O)[C@H](C)NC(=O)[C@H](CN(CC(=O)O)Cc3c(F)c(F)c(F)c(F)c3F)NC(=O)[C@H](CC(=O)O)NC1=O)NC(=O)[C@H](CC(C)(C)C)NC(=O)[C@H](CC(=O)O)NC2=O (some centres unmarked) ... 4.53
CC(=O)N1CCC[C@]12CC=CCCCC1(CCCC=CCCCOC(=O)N3CC[C@@](C(=O)N[C@@H](Cc4ccsc4)C(=O)N[C@@H](Cc4csc5ccccc45)C(=O)N[C@@H](CCC(N)=O)C(N)=O)(C3)NC(=O)[C@H](CC(N)=O)NC(=O)[C@H](Cc3ccccc3)NC(=O)[C@H](C)NC(=O)[C@H](C)NC(=O)[C@H](CCCNC(N)=O)NC(=O)[C@H](CC(=O)O)NC1=O)NC(=O)[C@H](CC(C)(C)C)NC(=O)[C@H](CC(=O)O)NC2=O (some centres unmarked) ... 4.65

## Task Give its pIC50 value. Item: CC(=O)N1CCC[C@]12CC=CCCCC1(CCCC=CCCCOC(=O)N3CC[C@@](C(=O)N[C@@H](Cc4ccccc4C(F)(F)F)C(=O)N[C@@H](Cc4csc5ccccc45)C(=O)N[C@@H](CCC(=O)N(C)C)C(N)=O)(C3)NC(=O)[C@H](CCC(=O)N(C)C)NC(=O)[C@H](Cc3ccccc3)NC(=O)[C@H](C)NC(=O)[C@H](C)NC(=O)[C@H](Cc3cccc(C(=O)O)c3)NC(=O)[C@H](CC(=O)O)NC1=O)NC(=O)[C@H](CC(C)(C)C)NC(=O)[C@H](CC(=O)O)NC2=O (some centres unmarked) [I-2536]
## Result 5.35

Entry source: patent US20240116985A1
